Target: Endothelial lipase (EL) (Homo sapiens (Human))
Test: Endothelial lipase (EL) enzymatic assay with fluorescent substrate A10070 in DMPG vesicles
Format: biochemical
Description: Endothelial lipase (EL) and hepatic lipase (HL) activities were measured using a fluorescent substrate, A10070, (Invitrogen, CA) doped into an artificial vesicle containing DMPG (Avanti Polar Lipids) as the excipient. […] The enzymatic assay was measured using 384-well white Optiplates. […] The reaction rates were measured on a Gemini plate reader with an excitation wavelength of 490 nm and an emission wavelength of 530 nm. […]
MEASUREMENT NAME: IC50 (nM)

# count of solved cases: 3
O=C(CNC(=O)C(c1nc2cc(F)c(-c3ccc(-n4nc(C(F)(F)F)cc4C(=O)O)cc3)cc2s1)S(=O)(=O)CCC(F)(F)F)NC1CC1 (stereo not shown) :: 6
CC(=O)Nc1ccc(-c2cc3nc(C(C(=O)NCC(=O)NC4CC4)S(C)(=O)=O)sc3cc2F)cc1 (stereo not shown) :: 9
CC(C)S(=O)(=O)C(C(=O)NCC(=O)NC1CC1)c1nc2cc(F)c(-c3ccc(NC(N)=O)cc3)cc2s1 (stereo not shown) :: 9

I = CS(=O)(=O)C(C(=O)NCC(=O)NC1CC1)c1nc2cc(F)c(-c3cnc(-c4ccccc4)nc3)cc2s1 (stereo not shown)
II = COCCOC(=O)Nc1ccc(-c2cc3sc(C(C(=O)NCC(=O)NC4CC4)S(=O)(=O)CCC(F)(F)F)nc3cc2F)cc1 (stereo not shown)
Ask: Which entry has a larger number for IC50, I or II ? # answer = label of selected item
Reply: I
(I: 5 nM, II: 2 nM)

====

Target: Endothelial lipase (EL) (Homo sapiens (Human), UniProt Q9Y5X9)
Sequence (Q9Y5X9 21-500): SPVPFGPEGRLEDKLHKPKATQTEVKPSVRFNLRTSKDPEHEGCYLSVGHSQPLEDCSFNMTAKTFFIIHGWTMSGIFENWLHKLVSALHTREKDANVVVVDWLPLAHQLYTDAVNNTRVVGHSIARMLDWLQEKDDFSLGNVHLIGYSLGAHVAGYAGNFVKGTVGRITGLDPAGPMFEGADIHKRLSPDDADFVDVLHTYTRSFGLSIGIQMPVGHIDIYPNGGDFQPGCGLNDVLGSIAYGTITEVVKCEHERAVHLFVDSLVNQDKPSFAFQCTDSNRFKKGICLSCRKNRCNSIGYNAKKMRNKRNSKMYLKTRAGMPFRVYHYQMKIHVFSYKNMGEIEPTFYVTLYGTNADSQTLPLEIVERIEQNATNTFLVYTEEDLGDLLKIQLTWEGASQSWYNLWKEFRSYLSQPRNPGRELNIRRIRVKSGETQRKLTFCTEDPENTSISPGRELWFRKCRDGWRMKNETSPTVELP
Assay: Endothelial lipase (EL) enzymatic assay with fluorescent substrate A10070 in DMPG vesicles
Type: biochemical
MEASUREMENT NAME: IC50 (nM)

Reference set, count: 2
Cc1cc2nc(C(C(=O)NCC(=O)NC3CC3)S(=O)(=O)C(C)C)sc2cc1-c1ccc(-c2ccccn2)cc1 (stereo not shown) :: 4
COCCS(=O)(=O)C(C(=O)NCC(=O)NC1CC1)c1nc2cc(F)c(-c3ccc(C(=O)NCCc4ccccc4)cc3)cc2s1 (stereo not shown) :: 3

A = COCCNC(=O)CNC(=O)C(c1nc2ccc(-c3ccc(F)nc3)cc2s1)S(=O)(=O)c1ccc(F)cc1 (stereo not shown)
B = CC(=O)Nc1cccc(-c2cc3sc(C(C(=O)NCC(=O)NC4CC4)S(C)(=O)=O)nc3cc2F)c1 (stereo not shown)
Ask: Smaller IC50 value, A vs B ? Give the chosen item's label as your response.
Reply: B
(B: 17 nM, A: 150 nM)

====

Target: Endothelial lipase (EL) (Homo sapiens (Human), UniProt Q9Y5X9)
Assay: Endothelial lipase (EL) enzymatic assay with fluorescent substrate A10070 in DMPG vesicles
Type: biochemical
MEASUREMENT NAME: IC50 (nM)

Examples with their reported IC50 follow.
COCCS(=O)(=O)C(C(=O)NCC(=O)NC1CC1)c1nc2c(F)cc(-c3ccn(C)c(=O)c3)cc2s1 (centres unmarked) :: 60
COCCS(=O)(=O)C(C(=O)NCC(=O)NC1CC1)c1nc2cc(-c3ccc(F)nc3)c(C)cc2s1 (centres unmarked) :: 21
CS(=O)(=O)C(C(=O)NCC(=O)NC1CC1)c1nc2cc(-c3cccnc3F)c(F)cc2s1 (centres unmarked) :: 25
O=C(CNC(=O)C(c1nc2ccc(-c3ccc(F)nc3)cc2s1)S(=O)(=O)Cc1ccc(C(F)(F)F)cc1)NC1CC1 (centres unmarked) :: 16
COCCS(=O)(=O)C(C(=O)NCC(=O)NC1CC1)c1nc2ccc(-c3cncc(Cl)c3)cc2s1 (centres unmarked) :: 52
CN(C)S(=O)(=O)C(C(=O)NCC(=O)NC1CC1)c1nc2c(F)cc(-c3ccc4[nH]c(=O)ccc4c3)cc2s1 (centres unmarked) :: 5

A = CC(C)OCCNC(=O)CNC(=O)C(c1nc2ccc(-c3ccn(C)c(=O)c3)cc2s1)S(=O)(=O)c1ccc(F)cc1 (centres unmarked)
B = O=C(CNC(=O)C(c1nc2cc(F)c(-c3ccc(NC(=O)OCC(F)(F)F)cc3)cc2s1)S(=O)(=O)CCC(F)(F)F)NC1CC1 (centres unmarked)
Ask: Response body: label of entry with the larger IC50; valid values A , B . State your choice using its label.
Reply: A

A = COCCS(=O)(=O)C(C(=O)NCC(=O)NC1CC1)c1nc2cc(-c3cncnc3)c(C)cc2s1 (centres unmarked)
B = COCCS(=O)(=O)C(C(=O)NCC(=O)NC1CC1)c1nc2cc(-c3cccc(C(=O)NCC(F)(F)F)c3)ccc2s1 (centres unmarked)
Ask: # return whichever of A and B has the smaller IC50 Pick one and reply with its label.
Reply: B
(B: 4 nM, A: 39 nM)

Attribution: patent US10173991B2
